System: Hs578T
Assay: Growth assay (Cell Titer Glo)
Format: cell-based
Conditions: Homo sapiens, Hs-578T, breast
Value Type: IC50 (µM)
Give the quantity in µM, number only.

For the molecule COC(=O)[C@H]1Cc2c([nH]c3ccccc23)[C@H](c2ccc(Cl)cc2Cl)N1C(=O)CCl , the measured IC50 on Hs578T was 0.22

---

I'd appreciate it if you could supply inhibition at 10 µM values for the items below.
Test system: human MDA-MB-231 breast tumor cells
Assay: Growth assay (Cell Titer Glo)
Assay type: cell-based
Details: Homo sapiens, MDA-MB-231, MDA-MB-231; 10 μM; mean +/− spread
Description: All human tumor cell lines were obtained from ATCC and grown under standard cell culture conditions at 37° C. in a humidified atmosphere with 5% CO2. […] Cells were harvested at 70 to 90% confluence with trypsin/EDTA and used immediately Cell count and viability was determined by Trypan blue staining followed by hemocytometry. […] Tissue culture microtiter 96-well plates were seeded with cells at a density of 5,000 cells/well. […] Luminescence was measured by a Perkin Elmer Victor® multi-label plate reader.^6 […]
Give the quantity in %, number only.

The molecule listed as COC(=O)[C@H]1Cc2c([nH]c3ccccc23)[C@@H](c2ccc(Cl)c(Cl)c2)N1 has a reported inhibition at 10 µM of 43

The molecule listed as COC(=O)[C@@H]1Cc2c([nH]c3ccccc23)[C@H](c2c(Cl)cccc2Cl)N1 has a reported inhibition at 10 µM of 52

The molecule listed as COC(=O)[C@@H]1Cc2c([nH]c3ccccc23)[C@@H](c2ccc(Cl)c(Cl)c2)N1C(=O)CCl has a reported inhibition at 10 µM of 55

The molecule listed as COC(=O)[C@@H]1Cc2c([nH]c3ccccc23)[C@@H](c2ccc(Cl)cc2Cl)N1 has a reported inhibition at 10 µM of 28

The molecule listed as COC(=O)[C@H]1Cc2c([nH]c3ccccc23)[C@H](c2ccc(Cl)cc2Cl)N1C(=O)CCl has a reported inhibition at 10 µM of 98

The molecule listed as COC(=O)[C@@H]1Cc2c([nH]c3ccccc23)[C@@H](c2ccc(Cl)cc2Cl)N1C(=O)CCl has a reported inhibition at 10 µM of 98

The molecule listed as COC(=O)[C@H]1Cc2c([nH]c3ccccc23)[C@H](c2ccc(Cl)c(Cl)c2)N1 has a reported inhibition at 10 µM of 100

The molecule listed as COC(=O)[C@H]1Cc2c([nH]c3ccccc23)[C@@H](c2ccc(Cl)cc2Cl)N1C(=O)CCl has a reported inhibition at 10 µM of 98

The molecule listed as COC(=O)[C@H]1Cc2c([nH]c3ccccc23)[C@H](c2ccc(Cl)c(Cl)c2)N1C(=O)CCl has a reported inhibition at 10 µM of 50

The molecule listed as COC(=O)[C@@H]1Cc2c([nH]c3ccccc23)[C@@H](c2ccc(Cl)c(Cl)c2)N1 has a reported inhibition at 10 µM of 48

The molecule listed as COC(=O)[C@H]1Cc2c([nH]c3ccccc23)[C@H](c2ccc(Cl)cc2Cl)N1 has a reported inhibition at 10 µM of 78

The molecule listed as COC(=O)[C@H]1Cc2c([nH]c3ccccc23)[C@@H](c2ccc(Cl)cc2Cl)N1 has a reported inhibition at 10 µM of 29

The molecule listed as COC(=O)[C@@H]1Cc2c([nH]c3ccccc23)[C@H](c2ccc(Cl)cc2Cl)N1 has a reported inhibition at 10 µM of 50

The molecule listed as COC(=O)[C@@H]1Cc2c([nH]c3ccccc23)[C@H](c2ccc(Cl)c(Cl)c2)N1C(=O)CCl has a reported inhibition at 10 µM of 43

The molecule listed as COC(=O)[C@@H]1Cc2c([nH]c3ccccc23)[C@H](c2ccc(Cl)cc2Cl)N1C(=O)CCl has a reported inhibition at 10 µM of 55

The molecule listed as COC(=O)[C@@H]1Cc2c([nH]c3ccccc23)[C@H](c2ccc(Cl)c(Cl)c2)N1 has a reported inhibition at 10 µM of 62
